System: SEM cells
experimentDescription: AUC of viability dose-response curve (% viability x log10 dose units); higher = less sensitive
conditionParameters: HPLM + 10% dialyzed FBS; 48 h
Mark 1.0 for AUC of viability dose-response curve under 400, 0.0 if at or over.

>>> labelclass("CNC(=O)c1ccc2c(c1)NC(=O)/C2=C(\\Nc1cccc(CN(C)C)c1)c1ccccc1")
1.0
>>> labelclass("CCOC(=O)N1CCN(/[N+]([O-])=N/Oc2cc(O/N=[N+](\\[O-])N3CCN(C(=O)OCC)CC3)c([N+](=O)[O-])cc2[N+](=O)[O-])CC1")
0.0
>>> labelclass("N#C/C(=C(/N)Sc1ccc(N)cc1)c1ccccc1C(F)(F)F")
0.0
>>> labelclass("COc1c(Cl)cc2c([nH]c3cnccc32)c1NC(=O)c1cccnc1C")
0.0

AUC of viability dose-response curve strictly < 400 for this compound? `CN1CCc2c(c3ccccc3n2Cc2ccc(C(=O)NO)cc2)C1`
1.0

Does `COc1ccc(CCC(=O)c2c(O)cc(O[C@@H]3O[C@H](CO)[C@@H](O)[C@H](O)[C@H]3O[C@@H]3O[C@@H](C)[C@H](O)[C@@H](O)[C@H]3O)cc2O)cc1O` have AUC of viability dose-response curve strictly under 400?
0.0

A record lists `CC(=O)SC[C@@H](C)C(=O)N1CCC[C@H]1C(=O)N[C@@H](Cc1ccccc1)C(=O)O` . Is its AUC of viability dose-response curve below 400?
0.0

* * *

Test system: NOMO1
experimentDescription: cell viability relative to DMSO control; higher = less cytotoxic
conditionParameters: RPMI 5 mM glucose + 10% FBS; 48 h; 0.0211 µM
assayEndpoint: cell viability (%)
Output spec: scalar in %, unitless text.

>>> measuredresult("CCc1ccc(OCc2ccccc2C(=O)Nc2ccc3nc(C)cc(N)c3c2)cc1")
108
>>> measuredresult("c1cc(-c2cnn3cc(-c4ccc(OCCN5CCCCC5)cc4)cnc23)ccn1")
81.2

Which value of cell viability has been reported for `C[C@H](CCC(=O)O)[C@H]1CC[C@H]2[C@@H]3[C@H](O)C[C@@H]4C[C@H](O)CC[C@]4(C)[C@H]3CC[C@]12C` in the records?
88.6

* * *

The following compounds are listed with their measured cell viability values.
Test system: NOMO1
experimentDescription: cell viability relative to DMSO control; higher = less cytotoxic
conditionParameters: HPLM + 10% dialyzed FBS; 48 h; 0.00702 µM
Just the number in %, nothing appended.

Worked examples, 2 compounds total:
>>> measuredresult("CO[C@@H](C(=O)N1Cc2[nH]nc(NC(=O)c3ccc(N4CCN(C)CC4)cc3)c2C1)c1ccccc1")
102
>>> measuredresult("CCNC(=O)CCC/C=C\\C[C@@H]1[C@@H](/C=C/C(O)CCc2ccccc2)[C@@H](O)C[C@@H]1O (some centres undefined)")
106

Name the recorded cell viability for `CCCCCCNC(=O)N1\C=C(F)/C(=O)NC1=O` .
124

Give its cell viability value. Item: `c1ccc(CNc2nc(NCc3ccccc3)c3ccccc3n2)cc1`
144

Sample C[C@]12CCC3c4ccc(O)cc4CCC3C1CCC2=O (some centres undefined) — what was its cell viability?
106

// cell viability lookup, key: `CC(C)(N)c1ccc(-c2nc3ccccc3nc2-c2ccccc2)cc1`
109

cell viability for `C[S+](=O)([O-])Oc1ccc2c(NC(N)=O)c(C(=O)c3ccc(Cl)cc3Cl)oc2c1` ?
114

What cell viability value was documented for this compound, `CNc1nc(-c2ccc3c(N)n[nH]c3c2)cc(N2C[C@@H](C(=O)NC3CCCCC3)CC[C@H]2C)n1` ?
79.8

Query: cell viability; subject: `CCCCc1ccc2[nH]c(NC(=O)OC)nc2c1`
106

* * *

System: P12-Ichikawa
experimentDescription: cell viability relative to DMSO control; higher = less cytotoxic
conditionParameters: RPMI 5 mM glucose + 10% dialyzed FBS; 48 h; 0.0632 µM
Measured cell viability, listed per entry for reference.
Please respond with the number in % and leave the unit unwritten.

Reference set (5 entries):
>>> measuredresult("CN1C(=O)/C(=C(NC2=CC=C(I)C=C2F)\\C3=C1\\N=C/N(C[C@@H](O)CO)C3=O)F")
77.7
>>> measuredresult("CN(CCOc1ccc(CC2SC(=O)NC2=O)cc1)c1ccccn1 (stereo not drawn)")
116
>>> measuredresult("CCCCc1ccc2[nH]c(NC(=O)OC)nc2c1")
97.5
>>> measuredresult("C=CC(=O)Nc1cc2c(Nc3ccc(F)c(Cl)c3)ncnc2cc1C#CC(C)(C)N1CCN(C)CC1")
101
>>> measuredresult("COC1=CC=C(C=C1)/C2=C(O)/C(=O)C3=C(O)C=C(O)C(=C3O2)CC=C(C)C")
127

What does the record list as cell viability for CCC(C)CCCCC(=O)N[C@@H](CCN)C(=O)NC(C(=O)N[C@H](CCN)C(=O)N[C@@H]1CCNC(=O)C([C@@H](C)O)NC(=O)[C@@H](CCN)NC(=O)[C@@H](CCN)NC(=O)[C@@H](CC(C)C)NC(=O)[C@H](Cc2ccccc2)NC(=O)[C@H](CCN)NC1=O)[C@@H](C)O (stereo partly drawn) ?
117

GET /values?readout=cell viability&item= CC(C)C1CCC(C(=O)N[C@H](Cc2ccccc2)C(=O)O)CC1 (stereo partly drawn)
90.9

If you can, please state the reported cell viability value of `OC1=CC=C(C=C1)C/2=C/C3=C(OC2)C=C(O)C=C3` .
111

* * *

System: NOMO1
experimentDescription: cell viability relative to DMSO control; higher = less cytotoxic
conditionParameters: HPLM + 10% dialyzed FBS; 48 h; 0.19 µM
Reported cell viability values for the following compounds.
Provide the reading as a plain figure in %.

Field: example entries. Status: answers known.
>>> measuredresult("CCCOc1ccc(C(=O)OCCN(CC)CC)cc1N")
130
>>> measuredresult("CC[C@H]1OC(=O)[C@H](C)[C@@H](O[C@H]2C[C@@](C)(OC)[C@@H](O)[C@H](C)O2)[C@H](C)[C@@H](O[C@@H]2O[C@H](C)C[C@H](N(C)C)[C@H]2O)[C@](C)(OC)C[C@@H](C)C(=O)[C@H](C)[C@@H](O)[C@]1(C)O")
92.2
>>> measuredresult("CCn1nnc2c(N3CCOCC3)nc(-c3ccc(NC(=O)Nc4ccc(C(=O)N5CCN(C)CC5)cc4)cc3)nc21")
53.9

Form: Entry = `CCc1ccc(OCc2ccccc2C(=O)Nc2ccc3nc(C)cc(N)c3c2)cc1` | System = NOMO1 | cell viability = ____
118

* * *

Test system: SEM cells
experimentDescription: cell viability relative to DMSO control; higher = less cytotoxic
conditionParameters: RPMI 5 mM glucose + 10% FBS; 48 h; 1.71 µM
cell viability overview
Your answer should be a plain number; it is taken to be in %.

Observe how each entry below is paired with its result.
>>> measuredresult("NC1=NC(=O)N2CC12 (centres undefined)")
43
>>> measuredresult("CN(C)c1nc(Cc2ccc(NC(=O)c3ccc(C(F)(F)F)cc3)cc2)nc(N(C)C)c1CC(=O)O")
93.4
>>> measuredresult("C[C@]1(O)CC(C1)C2=NC(=C3[N]2C=CN=C3N)C4=CC5=C(C=C4)C=CC(=N5)C6=CC=CC=C6 (centres undefined)")
42.2
>>> measuredresult("C[C@]12CC[C@H]3[C@@H](CC(=C)\\C4=C\\C(=O)\\C=C/[C@]34C)[C@@H]1CCC2=O")
106

Could you tell me which cell viability is on file for `COc1ccc(F)c(F)c1C(=O)c1cnc(NC2CCN([S+](C)(=O)[O-])CC2)nc1N` ?
83.1

* * *

Test system: SEM cells
experimentDescription: cell viability relative to DMSO control; higher = less cytotoxic
conditionParameters: RPMI 5 mM glucose + 10% dialyzed FBS; 48 h; 0.0211 µM
cell viability values, listed per item
Numeric answer only, unit % assumed.

A selection of reference data follows.
>>> measuredresult("CCc1ccc(OCc2ccccc2C(=O)Nc2ccc3nc(C)cc(N)c3c2)cc1")
107
>>> measuredresult("Cc1cc(Nc2cc(N3CCN(C)CC3)nc(/C=C/c3ccccc3)n2)n[nH]1")
112
>>> measuredresult("N[S+](=O)([O-])c1ccc(Nc2nc(OCC3CCCCC3)c3[nH]cnc3n2)cc1")
120

--- query ---
Look up cell viability with SEM cells for this compound: `CC(=O)SC[C@@H](C)C(=O)N1CCC[C@H]1C(=O)N[C@@H](Cc1ccccc1)C(=O)O`
104

* * *

System: P12-Ichikawa
experimentDescription: AUC of viability dose-response curve (% viability x log10 dose units); higher = less sensitive
conditionParameters: RPMI 5 mM glucose + 10% FBS; 48 h
Catalogue of AUC of viability dose-response curve values
# respond with the number and nothing more

Example entries and their recorded answers appear below.
>>> measuredresult("COc1ccccc1[C@H](c1cccc2ccccc12)[C@@](C)(C#N)C(=O)N1CCC(c2cccc(C(F)(F)F)c2)CC1")
425
>>> measuredresult("NCCCC(N)(C(=O)O)C(F)F (stereo not given)")
448
>>> measuredresult("Cc1nc(-c2ccc(OCC(C)C)c(C#N)c2)sc1C(=O)O")
424

What does the record list as AUC of viability dose-response curve for C[C@@H]1C(=O)O[C@H]2CC34[C@H]5C[C@@H](C(C)(C)C)C36[C@@H](OC(=O)[C@@H]6O)O[C@@]4(C(=O)O5)[C@]21O (stereo not given in full) ?
462

What AUC of viability dose-response curve value was documented for this compound, `Cc1cc(NC(=O)Nc2ccc(N(C)C)cc2)c2cc(F)cc(F)c2n1` ?
461
